Recorded growth values for a group of molecules are listed next.
# System: 786-0 renal
# experimental-protocol: NCI-60 one-dose screen, 48 h (100 = growth as untreated, 0 = no growth, -100 = all killed)
# condition-summary: 10 µM unless noted
Compounds without any hit were thinned out: in the full panel of roughly 83,000, 20% have a hit.

>  <molecule>
O=C1CC(c2ccc3c(c2)OCO3)Nc2ccccc21 (stereo not drawn)

>  <growth, %>
42.2

$$$$
>  <molecule>
O=C(OCc1ccc2c(Cl)cc(Cl)c(O)c2n1)N1CCN(C(=O)c2cc3cc(F)ccc3[nH]2)CC1

>  <growth, %>
79.2

$$$$
>  <molecule>
CCCn1ccnc1C(O)c1ccc(OCc2ccccc2)c(OC)c1 (stereo not drawn)

>  <growth, %>
96.6

$$$$
